- assay.notes: Nuclear factor erythroid 2-related factor 2/antioxidant responsive element (Nrf2/ARE) small molecule agonists: luciferase reporter gene qHTS assay in human keratinocytes (AID 1919969); further: nearly all actives have a fitted effect of over 35% in size
- conditions: KeratinoSens HaCaT ARE-luciferase, luminescence, 24 h; series mostly up to 92.4 µM
Records with an inconclusive call do not appear. Calls of active or inactive are those of the source. The call rests on the fitted dose curve.
Permitted responses: true = active, false = inactive

Answered examples (5):
# compound, category
measured = [
    ("Clc1ccc(CCC(Cn2ccnc2)Sc2c(Cl)cccc2Cl)cc1 (configuration not stated)", "true"),
    ("c1ccc2c(c1)CCNC2", "false"),
    ("CC(C)C1CCC(Cc2ccc(Cl)cc2)C1(O)Cn1cncn1 (configuration not stated)", "false"),
    ("NC1=NC(=O)C(c2ccccc2)O1 (configuration not stated)", "false"),
    ("O=C(N[C@H]1N=C(c2ccccc2F)c2cccc3c2N(CC3)C1=O)c1cc2ccccc2[nH]1", "false"),
]

Ask | Given CN1[C@@H]2CC[C@H]1CC(O)C2 (some centres not stated) , state the outcome it received in this test.
Reply | false

###

- assay.notes: p53 small molecule agonists, cell-based qHTS assay: qHTS cell viability counter screen (AID 1963581); further: nearly all actives have a fitted effect of over 45% in size
- conditions: p53RE-bla HCT-116 viability, ATP luminescence, 16 h; series mostly up to 66 µM
Inconclusive results are not listed. The source made the active and inactive calls. The call rests on the fitted dose curve.
Permitted responses: y (active), n (inactive)

Answered examples (4):
# compound, category
rows = [
    ("BrCC(Br)C1CCC(Br)C(Br)C1 (stereo not drawn)", "n"),
    ("c1ccc2c(c1)[nH]c1cnccc12", "n"),
    ("Oc1ccc(C2(c3ccc(O)cc3)c3ccccc3-c3ccccc32)cc1", "y"),
    ("O=C(O)C(F)(F)C(F)(F)C(F)(F)C(F)(F)C(F)(F)F", "n"),
]

Ask | Given O=C(Nc1ccc(F)cc1F)c1cccnc1Oc1cccc(C(F)(F)F)c1 , state the outcome it received in this test.
Reply | n

Ask | Okay, and ClCCCCCCCl ?
Reply | n

Ask | Okay, and O.O.O.O.O.O.O.O=S(=O)([O-])[O-].[Co+2] ?
Reply | n

Ask | Okay, and C[C@@H]1C[C@@H]([C@H](O)CC2CC(=O)NC(=O)C2)C(=O)[C@@H](C)C1 ?
Reply | n

Ask | Okay, and CC[N+]1(CCOC(=O)C(O)(c2ccccc2)c2ccccc2)CCCCC1 ?
Reply | n

Ask | Okay, and C/C=C/C=O ?
Reply | n

Ask | Okay, and N#Cc1ccc(N(CC(N)=O)CC(F)(F)F)cc1C(F)(F)F ?
Reply | n

Ask | Okay, and O=C(CBr)OCc1ccccc1 ?
Reply | n

Ask | Okay, and CCc1cccc(C)c1N(C(=O)CCl)[C@@H](C)COC ?
Reply | n

###

- test.system: 5-hydroxytryptamine receptor 2A (Homo sapiens) (UniProt P28223)
- Sequence (P28223 whole entry, looked up): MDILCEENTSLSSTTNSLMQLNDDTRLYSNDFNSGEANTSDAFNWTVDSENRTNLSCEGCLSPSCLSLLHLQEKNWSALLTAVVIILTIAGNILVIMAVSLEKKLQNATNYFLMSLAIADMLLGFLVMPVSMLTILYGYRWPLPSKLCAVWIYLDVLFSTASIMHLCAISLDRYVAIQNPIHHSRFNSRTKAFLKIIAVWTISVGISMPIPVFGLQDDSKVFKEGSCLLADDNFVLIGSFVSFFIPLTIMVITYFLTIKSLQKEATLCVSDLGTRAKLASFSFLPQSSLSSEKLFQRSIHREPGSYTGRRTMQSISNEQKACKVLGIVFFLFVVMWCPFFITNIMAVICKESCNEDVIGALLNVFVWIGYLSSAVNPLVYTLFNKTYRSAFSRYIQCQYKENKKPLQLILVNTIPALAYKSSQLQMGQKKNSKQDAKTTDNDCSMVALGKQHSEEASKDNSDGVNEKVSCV
- assay.notes: 5-hydroxytryptamine receptor 2A (HTR2A) small molecule agonists, cell-based qHTS assay (AID 1963587); further: nearly all actives have a fitted effect of over 30% in size
- conditions: HTR2A-CHO cells, calcium flux fluorescence, agonist mode; series mostly up to 76.8 µM
Records with an inconclusive call do not appear. The source made the active and inactive calls. Calls follow the shape of the full dose curve.
Permitted responses: active, inactive

Answered examples (5):
# compound, test.system, category
records = [
    ("CCC1(C2=NCCN2)Cc2ccccc2O1 (stereo not drawn)", "5-hydroxytryptamine receptor 2A (Homo sapiens) (UniProt P28223)", "inactive"),
    ("N#Cc1c(Cl)cccc1Cl", "5-hydroxytryptamine receptor 2A (Homo sapiens) (UniProt P28223)", "inactive"),
    ("IC(I)=C(I)I", "5-hydroxytryptamine receptor 2A (Homo sapiens) (UniProt P28223)", "inactive"),
    ("COP(=S)(NC(C)C)Oc1ccc(C)cc1[N+](=O)[O-] (stereo not drawn)", "5-hydroxytryptamine receptor 2A (Homo sapiens) (UniProt P28223)", "inactive"),
    ("CCC1(CC)C(=O)NC(=O)NC1=O", "5-hydroxytryptamine receptor 2A (Homo sapiens) (UniProt P28223)", "inactive"),
]

Ask | Given NC(=O)c1ccc(N)nc1 , state the outcome it received in this test.
Reply | inactive

Ask | Okay, and CN(C)c1ccc(N=Nc2ccccc2)cc1 ?
Reply | inactive

Ask | Okay, and O=C(Nc1ccc(F)cc1F)c1cccnc1Oc1cccc(C(F)(F)F)c1 ?
Reply | inactive

Ask | Okay, and CC(C1CC1)C(O)(Cn1cncn1)c1ccc(Cl)cc1 (stereo not drawn) ?
Reply | inactive

Ask | Okay, and CC(C(O)c1ccccc1)N(C)C/C=C/c1ccccc1 (stereo not drawn) ?
Reply | inactive
